These data points were gathered from PubChem BioAssay AID1963972.

# viability, T/C per record follows
Tested on: 945468-187-T-J2-PDC spheroids viability
Experiment: Anticancer human tumor 945468-187-T-J2-PDC patient-derived rectal carcinoma cell line growth inhibition [PI3K]
Settings: second compound 0.0316 µM; first compound 0.0316 µM; active compounds read low; spheroids with HUVEC and MSC

Exam item: Param item = CNC(=O)c1ccc(N2C(=S)N(c3ccc(C#N)c(C(F)(F)F)c3)C(=O)C2(C)C)cc1F + Cc1nc(NC(=O)N2CCCC2C(N)=O)sc1-c1ccnc(C(C)(C)C(F)(F)F)c1 ; retrieve measured viability, T/C.
Marked response: 116%

Exam item: Again, but for C#Cc1c(F)ccc2cc(O)cc(-c3ncc4c(N5CC6CCC(C5)N6)nc(OCC56CCCN5CC(F)C6)nc4c3F)c12 (stereo not given) + Cc1nc(NC(=O)N2CCCC2C(N)=O)sc1-c1ccnc(C(C)(C)C(F)(F)F)c1
Marked response: 110%

Exam item: Again, but for C#Cc1c(F)ccc2cc(O)cc(-c3ncc4c(N5CC6CCC(C5)N6)nc(OCC56CCCN5CC(F)C6)nc4c3F)c12 (stereo not given) + CC(Nc1ncnc2nc[nH]c12)c1cc2cccc(Cl)c2c(=O)n1-c1ccccc1
Marked response: 101%

Exam item: Again, but for C#Cc1c(F)ccc2cc(O)cc(-c3ncc4c(N5CC6CCC(C5)N6)nc(OCC56CCCN5CC(F)C6)nc4c3F)c12 (stereo not given) + COc1c(OCCCN2CCOCC2)ccc2c3n(c(=NC(=O)c4cnc(N)nc4)nc12)CCN3
Marked response: 79%

Exam item: Again, but for Cn1nccc1Nc1nccc(-c2ccn(C(CO)c3ccc(Cl)c(F)c3)c(=O)c2)n1 (stereo not given) + CC(Nc1ccc2c(c1)OCCn1cc(N3C(=O)OCC3C(F)F)nc1-2)C(N)=O
Marked response: 118%

Exam item: Again, but for CC(=O)c1c(C)c2cnc(Nc3ccc(N4CCNCC4)cn3)nc2n(C2CCCC2)c1=O + COc1c(OCCCN2CCOCC2)ccc2c3n(c(=NC(=O)c4cnc(N)nc4)nc12)CCN3
Marked response: 118%

Exam item: Again, but for C=CC(=O)N1CCN(c2nc(=O)n(-c3c(C)ccnc3C(C)C)c3nc(-c4c(O)cccc4F)c(F)cc23)C(C)C1 (stereo not given) + CC(Nc1ncnc2nc[nH]c12)c1cc2cccc(Cl)c2c(=O)n1-c1ccccc1
Marked response: 103%

Exam item: Again, but for CC(Cn1ccc(-c2ccc(C#N)c(Cl)c2)n1)NC(=O)c1cc(C(C)O)[nH]n1 (stereo not given) + CC(Nc1ncnc2nc[nH]c12)c1cc2cccc(Cl)c2c(=O)n1-c1ccccc1
Marked response: 99.9%

Exam item: Again, but for C#Cc1c(F)ccc2cc(O)cc(-c3ncc4c(N5CC6CCC(C5)N6)nc(OCC56CCCN5CC(F)C6)nc4c3F)c12 (stereo not given) + CC(Nc1ccc2c(c1)OCCn1cc(N3C(=O)OCC3C(F)F)nc1-2)C(N)=O
Marked response: 94.5%

Exam item: Again, but for CCN1CCN(Cc2ccc(Nc3ncc(F)c(-c4cc(F)c5nc(C)n(C(C)C)c5c4)n3)nc2)CC1 + Cc1nc(NC(=O)N2CCCC2C(N)=O)sc1-c1ccnc(C(C)(C)C(F)(F)F)c1
Marked response: 123%

Exam item: Again, but for CC(C)NCC(C(=O)N1CCN(c2ncnc3c2C(C)CC3O)CC1)c1ccc(Cl)cc1 (stereo not given) + CC(Nc1ccc2c(c1)OCCn1cc(N3C(=O)OCC3C(F)F)nc1-2)C(N)=O
Marked response: 93.6%

Exam item: Again, but for CC1(C)CCC(CN2CCN(c3ccc(C(=O)NS(=O)(=O)c4ccc(NCC5CCOCC5)c([N+](=O)[O-])c4)c(Oc4cnc5[nH]ccc5c4)c3)CC2)=C(c2ccc(Cl)cc2)C1 + COc1c(OCCCN2CCOCC2)ccc2c3n(c(=NC(=O)c4cnc(N)nc4)nc12)CCN3
Marked response: 99.9%

Exam item: Again, but for CC(Cn1ccc(-c2ccc(C#N)c(Cl)c2)n1)NC(=O)c1cc(C(C)O)[nH]n1 (stereo not given) + CC(Nc1ccc2c(c1)OCCn1cc(N3C(=O)OCC3C(F)F)nc1-2)C(N)=O
Marked response: 100%

Exam item: Again, but for CC(=O)c1c(C)c2cnc(Nc3ccc(N4CCNCC4)cn3)nc2n(C2CCCC2)c1=O + CC(Nc1ccc2c(c1)OCCn1cc(N3C(=O)OCC3C(F)F)nc1-2)C(N)=O
Marked response: 86.2%

Exam item: Again, but for CC(Cn1ccc(-c2ccc(C#N)c(Cl)c2)n1)NC(=O)c1cc(C(C)O)[nH]n1 (stereo not given) + COc1c(OCCCN2CCOCC2)ccc2c3n(c(=NC(=O)c4cnc(N)nc4)nc12)CCN3
Marked response: 90.7%

* * *

Tested on: 945468-187-T-J2-PDC spheroids viability
Experiment: Anticancer human tumor 945468-187-T-J2-PDC cell line growth inhibition [PI3K];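 note: spheroids exposed to compounds for seven days before reading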
Details: second compound 3.16 µM; first compound 3.16 µM; active compounds read low; spheroids with HUVEC and MSC
From the text: Combinatorial screen of targeted agents with the PI3K inhibitors inavolisib, alpelisib, duvelisib, and copanlisib in multi-cell type tumor spheroids A high-throughput screen of multi-cell type tumor spheroids was designed to identify active combinations of targeted small molecules and PI3K pathway inhibitors. […] Compounds. […] If the clinical Cmax for an agent had not been determined, the highest concentration tested was 10 microM. […]
Observable: viability, T/C (%)
State the answer as a number, implicitly in %.

>>> obs_value("C=CC(=O)N1CCN(c2nc(=O)n(-c3c(C)ccnc3C(C)C)c3nc(-c4c(O)cccc4F)c(F)cc23)C(C)C1 (configuration not stated) + Cc1nc(NC(=O)N2CCCC2C(N)=O)sc1-c1ccnc(C(C)(C)C(F)(F)F)c1")
82.8
>>> obs_value("CC(C)NCC(C(=O)N1CCN(c2ncnc3c2C(C)CC3O)CC1)c1ccc(Cl)cc1 (configuration not stated) + CC(Nc1ncnc2nc[nH]c12)c1cc2cccc(Cl)c2c(=O)n1-c1ccccc1")
84.7
>>> obs_value("CC(Cn1ccc(-c2ccc(C#N)c(Cl)c2)n1)NC(=O)c1cc(C(C)O)[nH]n1 (configuration not stated) + CC(Nc1ncnc2nc[nH]c12)c1cc2cccc(Cl)c2c(=O)n1-c1ccccc1")
92.3
>>> obs_value("Cn1ncc(Cl)c1-c1cc(C(=O)NC(CN)Cc2cccc(F)c2)sc1Cl (configuration not stated) + CC(Nc1ncnc2nc[nH]c12)c1cc2cccc(Cl)c2c(=O)n1-c1ccccc1")
81.8
>>> obs_value("CCCS(=O)(=O)Nc1ccc(F)c(C(=O)c2c[nH]c3ncc(-c4ccc(Cl)cc4)cc23)c1F + CC(Nc1ncnc2nc[nH]c12)c1cc2cccc(Cl)c2c(=O)n1-c1ccccc1")
113

Exam item: Find viability, T/C (945468-187-T-J2-PDC spheroids viability) for the entry CC(C)NCC(C(=O)N1CCN(c2ncnc3c2C(C)CC3O)CC1)c1ccc(Cl)cc1 (configuration not stated) + Cc1nc(NC(=O)N2CCCC2C(N)=O)sc1-c1ccnc(C(C)(C)C(F)(F)F)c1
Marked response: 81.5

Exam item: Again, but for C=CC(=O)N1CCN(c2nc(=O)n(-c3c(C)ccnc3C(C)C)c3nc(-c4c(O)cccc4F)c(F)cc23)C(C)C1 (configuration not stated) + CC(Nc1ncnc2nc[nH]c12)c1cc2cccc(Cl)c2c(=O)n1-c1ccccc1
Marked response: 99.6

* * *

System: 945468-187-T-J2-PDC spheroids viability
Assay: Anticancer human tumor 945468-187-T-J2-PDC cell line growth inhibition [PI3K];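 note: spheroids exposed to compounds for seven days before reading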
Details: second compound 1 µM; first compound 0.316 µM; active compounds read low; spheroids with HUVEC and MSC
# viability, T/C per record follows
State the answer as a number, implicitly in %.

>>> obs_value("CC1(C)CCC(CN2CCN(c3ccc(C(=O)NS(=O)(=O)c4ccc(NCC5CCOCC5)c([N+](=O)[O-])c4)c(Oc4cnc5[nH]ccc5c4)c3)CC2)=C(c2ccc(Cl)cc2)C1 + Cc1nc(NC(=O)N2CCCC2C(N)=O)sc1-c1ccnc(C(C)(C)C(F)(F)F)c1")
82.3
>>> obs_value("C#Cc1c(F)ccc2cc(O)cc(-c3ncc4c(N5CC6CCC(C5)N6)nc(OCC56CCCN5CC(F)C6)nc4c3F)c12 (centres undefined) + CC(Nc1ncnc2nc[nH]c12)c1cc2cccc(Cl)c2c(=O)n1-c1ccccc1")
113
>>> obs_value("CC1(C)CCC(CN2CCN(c3ccc(C(=O)NS(=O)(=O)c4ccc(NCC5CCOCC5)c([N+](=O)[O-])c4)c(Oc4cnc5[nH]ccc5c4)c3)CC2)=C(c2ccc(Cl)cc2)C1 + CC(Nc1ccc2c(c1)OCCn1cc(N3C(=O)OCC3C(F)F)nc1-2)C(N)=O")
94.8

// next entry
Exam item: Find viability, T/C (945468-187-T-J2-PDC spheroids viability) for the entry C[C@@H](NC(=O)c1ncnc(N)c1Cl)c1ncc(C(=O)Nc2cc(C(F)(F)F)c(Cl)cn2)s1 + CC(Nc1ccc2c(c1)OCCn1cc(N3C(=O)OCC3C(F)F)nc1-2)C(N)=O
Marked response: 67.5
